The following compounds are shown together with reported MIC values.
System: Acinetobacter baumannii
Assay: Antimicrobial activity against Acinetobacter baumannii ATCC 19606 incubated for 18 hrs by CLSI method
Format: functional
Settings: ATCC 19606 = CIP 70.34 = JCM 6841, 18 h
Report as a plain number; the unit µg/mL is understood.

Worked cases, answers included:
CC(C)CCOc1ccccc1-c1ccccc1OCc1cn(C[C@@H](CCCNC(=N)N)NC(=O)[C@@H](CCCCN)n2cc(Cc3ccccc3)nn2)nn1.Cl.Cl; 16
CC(C)CCOc1ccccc1-c1ccccc1OCc1cn(C[C@@H](CCCCN)NC(=O)[C@@H](CCCNC(=N)N)NC(=O)Cc2ccccc2)nn1.Cl.Cl; 32
CC(C)CCOc1ccc2ccccc2c1-c1c(OCc2cn(C[C@@H](CCCCN)NC(=O)[C@@H](CCCNC(=N)N)n3cc(CC4CCCCC4)nn3)nn2)ccc2ccccc12.Cl.Cl; 16
CC(C)CCOc1ccccc1-c1ccccc1OCc1cn(C[C@@H](CCCNC(=N)N)NC(=O)[C@@H](CCCCN)N=[N+]=[N-])nn1.Cl.Cl; 16

The record that follows has no MIC shown yet.
Data request: Reported MIC for "CC(C)CCOc1ccccc1-c1ccccc1OCc1cn(C[C@@H](CCCCN)NC(=O)OCc2ccccc2)nn1.Cl" : what is it?
Data returned: 32

* * *

Test system: Staphylococcus aureus
Assay: Antimicrobial activity against methicillin-resistant Staphylococcus aureus ATCC 43300 incubated for 18 hrs by CLSI method
Format: functional
Conditions: ATCC 43300, 18 h
Measurement Name: MIC (µg/mL)
Answer in µg/mL, number only, no unit symbol.

CC(C)CCOc1ccc2ccccc2c1-c1c(OCc2cn(C[C@@H](CCCCN)NC(=O)Cc3ccc4c(c3)OCO4)nn2)ccc2ccccc12.Cl; 8

Now turn to the next molecule.
Data request: I'd like to know its MIC. The molecule in question is "CC(C)CCOc1ccc2ccccc2c1-c1c(OCc2cn(C[C@@H](CCCCN)NC(=O)[C@@H](CCCNC(=N)N)NC(=O)Cc3ccc4c(c3)OCO4)nn2)ccc2ccccc12.Cl.Cl"
Data returned: 2

* * *

Assay: Cytotoxicity against human HEK293 cells assessed as reduction in cell growth incubated for 20 hrs by resazurin dye-based fluorometric assay
Each entry below carries its reported CC50 at 20 h.

CC(C)CCOc1ccc2ccccc2c1-c1c(OCc2cn(C[C@@H](CCCCN)NC(=O)[C@@H](CCCNC(=N)N)n3cc(CCc4ccccc4)nn3)nn2)ccc2ccccc12.Cl.Cl; > 32 µg/mL
CC(C)CCOc1ccccc1-c1ccccc1OCc1cn(C[C@@H](CCCCN)NC(=O)[C@@H](CCCNC(=N)N)n2cc(CCc3ccccc3)nn2)nn1.Cl.Cl; > 32 µg/mL

Data request: Please report the recorded CC50 at 20 h for "CC(C)CCOc1ccc2ccccc2c1-c1c(OCc2cn(C[C@@H](CCCCN)NC(=O)[C@@H](CCCNC(=N)N)n3cc(CC4CCCCC4)nn3)nn2)ccc2ccccc12.Cl.Cl" .
Data returned: > 32 µg/mL

* * *

Tested on: Staphylococcus aureus
Assay: Antimicrobial activity against methicillin-resistant Staphylococcus aureus ATCC 43300 incubated for 18 hrs by CLSI method
Type: functional
Details: ATCC 43300, 18 h
Measurement Name: MIC

Solved cases (2 shown):
CC(C)CCOc1ccc2ccccc2c1-c1c(OCc2cn(C[C@@H](CCCCN)NC(=O)CCc3ccccc3)nn2)ccc2ccccc12.Cl; 2 to 4 µg/mL
CC(C)CCOc1ccc2ccccc2c1-c1c(OCc2cn(C[C@@H](CCCCN)NC(=O)[C@@H](CCCNC(=N)N)NC(=O)CCc3ccccc3)nn2)ccc2ccccc12.Cl.Cl; 1 to 2 µg/mL

Next:
Data request: Which MIC value is on record for "CCCCCCCCCC(=O)N[C@@H](Cc1c[nH]c2ccccc12)C(=O)N[C@H](CC(N)=O)C(=O)N[C@@H](CC(=O)O)C(=O)N[C@@H]1C(=O)NCC(=O)N[C@@H](CCCN)C(=O)N[C@@H](CC(=O)O)C(=O)N[C@H](C)C(=O)N[C@@H](CC(=O)O)C(=O)NCC(=O)N[C@H](CO)C(=O)N[C@@H]([C@H](C)CC(=O)O)C(=O)N[C@@H](CC(=O)c2ccccc2N)C(=O)O[C@@H]1C" ?
Data returned: 0.5 to 1 µg/mL
